The values you see were collected from paper PMC7221803.

biological target: DYRK1A (Homo sapiens, UniProt Q13627); assay: FRET-based LanthaScreen Eu Kinase Binding Assay for DYRK1A; conditions: read-out: % DYRK1A Inhibition 1000 nM
Mark yes (1) for reported inhibition at 1 µM of 50% or greater; mark no (0) for anything smaller.

Answered cases to consult:
Dear colleague, could you confirm whether Cc1nccc2c1[nH]c1cc(OC(=O)NC(C)C)ccc12 has inhibition at 1 µM at or above 50%?
yes (1)

Dear colleague, could you confirm whether COC(=O)CCCCCOc1ccc2c(c1)[nH]c1c(C)nccc12 has inhibition at 1 µM at or above 50%?
yes (1)

Dear colleague, could you confirm whether Cc1nccc2c1[nH]c1cc(N)ccc12 has inhibition at 1 µM at or above 50%?
no (0)

Dear colleague, could you confirm whether Cc1nccc2c1[nH]c1cc(OCC(=O)O)ccc12 has inhibition at 1 µM at or above 50%?
no (0)

Dear colleague, could you confirm whether COC(=O)COc1ccc2c(c1)[nH]c1c(C)nccc12 has inhibition at 1 µM at or above 50%?
yes (1)

Dear colleague, could you confirm whether Cc1nccc2c1[nH]c1cc(OCCCN)ccc12 has inhibition at 1 µM at or above 50%?
no (0)

***
Dear colleague, could you confirm whether COCCOc1ccc2c(c1)[nH]c1c(C)nccc12 has inhibition at 1 µM at or above 50%?
no (0)

----------
Molecular target: DYRK1A (Homo sapiens, UniProt Q13627)
Assay: FRET-based LanthaScreen Eu Kinase Binding Assay for DYRK1A
Conditions: read-out: % DYRK1A Inhibition 300 nM
Experimental: Compounds were tested for DYRK1A binding activity by a commercial kinase profiling services, Life Technologies which uses the FRET-based LanthaScreen® Eu Kinase Binding Assay. Compounds were screened for DYRK1A activity at concentrations of 1000 nM and 300 nM in duplicates. The IC50 was determined by 10 point LanthaScreen® Eu Kinase Binding Assay in duplicates.
recorded endpoint: inhibition at 0.3 µM (%)
Field format: number, assumed %, no unit text.

Some compounds with recorded inhibition at 0.3 µM:
Please give the measured inhibition at 0.3 µM for this compound: Cc1nccc2c1[nH]c1cc(OCC(=O)O)ccc12 [1-4a]
3

Please give the measured inhibition at 0.3 µM for this compound: Cc1nccc2c1[nH]c1cc(OC(=O)NC(C)C)ccc12 [1-12]
42

***
Please give the measured inhibition at 0.3 µM for this compound: Cc1nccc2c1[nH]c1cc(N)ccc12 [1-9, 7-Amino-1-methyl-9H-b-carboline]
8

Please give the measured inhibition at 0.3 µM for this compound: COC(=O)CCCCCOc1ccc2c(c1)[nH]c1c(C)nccc12 [1-2e]
56

----------
molecular target: DYRK1A (Homo sapiens, UniProt Q13627); assay: FRET-based LanthaScreen Eu Kinase Binding Assay for DYRK1A; conditions: compound at 1000 nM, duplicates; read-out: % DYRK1A Inhibition 1000 nM
recorded endpoint: inhibition at 1 µM (%)
Field format: number, assumed %, no unit text.

Please give the measured inhibition at 1 µM for this compound: Cc1nccc2c1[nH]c1cc(NC(=O)c3ccccc3)ccc12 [1-11, 7-Benzamide-1-methyl-9H-b-carboline]
77

Please give the measured inhibition at 1 µM for this compound: Cc1nccc2c1[nH]c1cc(OCCNC(=O)OC(C)(C)C)ccc12
61

Please give the measured inhibition at 1 µM for this compound: COC(=O)CCCOc1ccc2c(c1)[nH]c1c(C)nccc12
78

Please give the measured inhibition at 1 µM for this compound: CC(=O)NCCCCOc1ccc2c(c1)[nH]c1c(C)nccc12
69

Please give the measured inhibition at 1 µM for this compound: Cc1nccc2c1[nH]c1cc(OCCCCNC(=O)OC(C)(C)C)ccc12
58

Please give the measured inhibition at 1 µM for this compound: CCOCCOc1ccc2c(c1)[nH]c1c(C)nccc12
37

Please give the measured inhibition at 1 µM for this compound: CC(=O)NCCCOc1ccc2c(c1)[nH]c1c(C)nccc12
49

Please give the measured inhibition at 1 µM for this compound: Cc1nccc2c1[nH]c1cc(OCCCC(N)=O)ccc12
58

----------
# reported inhibition at 0.3 µM; entries follow
target: UniProt Q13627; assay: FRET-based LanthaScreen Eu Kinase Binding Assay for DYRK1A; conditions: read-out: % DYRK1A Inhibition 300 nM
Field format: number, assumed %, no unit text.

Some compounds with recorded inhibition at 0.3 µM:
Please give the measured inhibition at 0.3 µM for this compound: COCCOc1ccc2c(c1)[nH]c1c(C)nccc12
23

Please give the measured inhibition at 0.3 µM for this compound: Cc1nccc2c1[nH]c1cc(OCCCN)ccc12
8

Attention now shifts to the item below.
Please give the measured inhibition at 0.3 µM for this compound: COC(=O)COc1ccc2c(c1)[nH]c1c(C)nccc12
58
